Target: 229E-CoV E-protein (Human coronavirus 229E, UniProt P19741)
Sequence (P19741 whole entry): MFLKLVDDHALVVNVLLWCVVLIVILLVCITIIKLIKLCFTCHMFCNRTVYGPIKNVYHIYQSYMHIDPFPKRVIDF
Assay: Bacterial bio-assay for 229E-CoV E-protein
Conditions: halo of growth score; E. coli expressing E protein at 37° C.
ASSAY ENDPOINT: 229E E protein Inhibition (score)
Field: numeric (score). Do not append units.

229E-CoV E-protein (Human coronavirus 229E, UniProt P19741) 229E E protein Inhibition (score) of CC(C)(C)c1ccc(/C=C/C(=O)NC(=N)N)cc1 is 4.0

229E-CoV E-protein (Human coronavirus 229E, UniProt P19741) 229E E protein Inhibition (score) of Cc1cc(C)c(C)c(/C=C/C(=O)NC(=N)N)c1C is 0.3

229E-CoV E-protein (Human coronavirus 229E, UniProt P19741) 229E E protein Inhibition (score) of N=C(N)NC(=O)c1ccc(-c2ccccc2)cc1 is 2.3

229E-CoV E-protein (Human coronavirus 229E, UniProt P19741) 229E E protein Inhibition (score) of N=C(N)NC(=O)/C=C/c1ccc(F)cc1 is 0.4

* * *

What inhibition at 1 µM was measured for each of the following?
System: MHV (strain MHV-A59)
Test: microbe, parasite or virus in culture
Conditions: Murine coronavirus, L929, read-out: Percent reduction in Plaque number/# experiments
Field: numeric (%). Do not append units.

inhibition at 1 µM reported for this molecule CCCCC/C=C/c1cccc(/C=C/C(=O)NC(=N)N)c1 : -6

inhibition at 1 µM reported for this molecule N=C(NC(=O)c1ccc2cc(O)ccc2c1)Nc1ccccc1 : -5

inhibition at 1 µM reported for this molecule N=C(NC(=O)CCc1ccccc1)NC(=O)CCc1ccccc1 [N,N′-Bis(3-phenylpropanoyl)guanidine, N,N-Bis(3-phenylpropanoyl)guanidine] : -8

inhibition at 1 µM reported for this molecule N=C(N)NC(=O)/C=C/c1ccco1 [(2-Furanacryloyl)guanidine] : -3

inhibition at 1 µM reported for this molecule N=C(N)NC(=O)/C=C/c1cccc(C2=CCCCC2)c1 [3-(cyclohex-1-en-1-yl)cinnamoylguanidine] : -19

* * *

Target: Vpu protein (Human immunodeficiency virus type 1 group M subtype B)
Sequence (P05919 whole entry): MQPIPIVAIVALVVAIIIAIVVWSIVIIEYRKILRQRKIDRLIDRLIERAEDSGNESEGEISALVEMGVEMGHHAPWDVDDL
Conditions: Table 19a; rank among 12 compounds, 1 = highest score
Flag rule - Bacterial assay rank order less than 8 flags T; the remaining entries get F.

// query Input COc1ccc2cc(C(=O)NC(=N)N)ccc2c1 ; condition: Bacterial assay rank order strictly below 8. Does it hold?
// result T

// query Input N=C(N)NC(=O)/C=C/c1cccc2ccccc12 [trans-3-(1-napthyl)acryloylguanidine] ; condition: Bacterial assay rank order strictly below 8. Does it hold?
// result T

// query Input Cc1cccc(/C=C/C(=O)NC(=N)N)c1 ; condition: Bacterial assay rank order strictly below 8. Does it hold?
// result T

// query Input N=C(N)NC(=O)c1ccc(-c2ccccc2)cc1 ; condition: Bacterial assay rank order strictly below 8. Does it hold?
// result T

// query Input NC(N)=NC(=O)/C=C/c1ccccc1 ; condition: Bacterial assay rank order strictly below 8. Does it hold?
// result T

// query Input NC(N)=NC(=O)c1nc(Cl)c(N2CCCCCC2)nc1N [5-(N,N-hexamethylene)amiloride] ; condition: Bacterial assay rank order strictly below 8. Does it hold?
// result F

// query Input N=C(N)NC(=O)C1CC1c1ccccc1 (centres unmarked) ; condition: Bacterial assay rank order strictly below 8. Does it hold?
// result F
